tested_system: T1, S287A
T1 construct: % monomer 90.34; also called MICA*008.mIgG2a S287A
T1 chain: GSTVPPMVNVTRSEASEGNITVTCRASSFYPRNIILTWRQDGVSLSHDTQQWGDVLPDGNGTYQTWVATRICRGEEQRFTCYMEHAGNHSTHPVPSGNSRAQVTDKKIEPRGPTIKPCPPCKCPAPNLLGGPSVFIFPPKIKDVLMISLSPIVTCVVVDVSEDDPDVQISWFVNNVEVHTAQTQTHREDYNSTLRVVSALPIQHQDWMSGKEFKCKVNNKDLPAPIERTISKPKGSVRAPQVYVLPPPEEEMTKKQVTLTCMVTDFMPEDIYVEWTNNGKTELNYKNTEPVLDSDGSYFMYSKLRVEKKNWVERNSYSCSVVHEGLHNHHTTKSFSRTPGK
assay_remarks: SPR, Fab over captured MICA*008.mIgG2a Ala variant; KD relative to wild type
experimental_endpoint: fold-decrease in affinity

Identify the reported fold-decrease in affinity for the following entry. 6F8.7 Fab (Fab, V domains shown) VH: DVQLQGSGPGLVKPSQSLSLTCSVTGYSITNDYYWNWIRQFPGNKLEWMGFISFGGSNNYNPSLKNRISITRDTSKNQFFLKLSSVTTEDTATYYCARYDGRGAWFAYWAQGTLVTVSA VL: DIQMTQSPASLSASVGETVTITCRASGNIHNYLAWYQQKQGKSPQLLVYDAITLADGVPSRFSGSGSGTQYSLKINSLQPEDFGNYYCQHFWSFPLTFGAGTKVEIK
1.1
